target: 5HT2A receptor (Homo sapiens, UniProt P28223); assay: cell-based; parameters: expressed in transfected cells; host or cells: HEK293T cells, transient co-transfection; conditions: 5HT2A β-Arr EC50 (nM), BRET1 beta-arrestin2 recruitment, HEK293T
Sequence (P28223 whole entry): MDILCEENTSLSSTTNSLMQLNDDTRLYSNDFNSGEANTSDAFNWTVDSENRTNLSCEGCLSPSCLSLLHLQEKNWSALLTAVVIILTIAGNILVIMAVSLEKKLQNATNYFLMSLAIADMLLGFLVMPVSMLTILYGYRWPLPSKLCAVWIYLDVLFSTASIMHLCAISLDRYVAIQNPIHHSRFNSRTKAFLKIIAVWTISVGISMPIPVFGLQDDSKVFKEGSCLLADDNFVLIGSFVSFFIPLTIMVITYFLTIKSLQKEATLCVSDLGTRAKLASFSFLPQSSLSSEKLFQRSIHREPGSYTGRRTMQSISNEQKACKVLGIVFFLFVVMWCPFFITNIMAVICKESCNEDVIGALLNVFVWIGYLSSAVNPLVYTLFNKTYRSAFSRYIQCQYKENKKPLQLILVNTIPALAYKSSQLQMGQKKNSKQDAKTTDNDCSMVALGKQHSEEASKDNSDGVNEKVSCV
Param label: returns 1 when EC50 < 800 nM, returns -1 otherwise, including exact equality.

# count of solved cases: 5
N#Cc1cccc2c(C34CNCCC3C4)n[nH]c12 (centres unmarked) [Example 195]; -1
C1=C(c2c[nH]c3cccnc23)CNCC1 [Example 138]; -1
Clc1cccc2c(C3=CCCCNC3)n[nH]c12 [Example 208]; -1
CCCN1CCC=C(c2n[nH]c3c(CC)cccc23)C1 [Example 237]; -1
COC1(c2c[nH]c3c(Cl)cccc23)CNC1 [Example 254]; -1

Moving on to another compound below.
Q: Given CCCN1CCC=C(c2n[nH]c3cccc(C#N)c23)C1 [Example 175] , is recorded EC50 strictly lower than 800 nM?
A: 1

---

compounds and their reported EC50
biological target: 5HT2A receptor (Homo sapiens, UniProt P28223); experiment: cell-based; design: expressed in transfected cells; host or cells: HEK293T cells, transient co-transfection; details: 5HT2A Gq EC50 (nM), BRET2 Gαq dissociation, HEK293T cells
Provide a numeric answer, followed by its unit.

CN1CCC=C(c2n[nH]c3ccc(C#N)cc23)C1 [Example 103]; 612 nM
COc1ccnc2[nH]cc(C3=CCCNC3)c12 [Example 10]; 125 nM
CN1CCC=C(c2c[nH]c3cc(Cl)ccc23)C1 [Example 32]; 304 nM
CN1CCC=C(c2n[nH]c3cccc(F)c23)C1 [Example 98]; 105 nM
Clc1cccc2c(C3=CCCN(Cc4ccccc4)C3)c[nH]c12 [Example 67]; 44.1 nM
CN1CCC=C(c2c[nH]c3cccc(-c4ccccc4)c23)C1 [Example 21]; 874 nM
CN1CCC=C(c2n[nH]c3c(F)cccc23)C1 [Example 107]; 34.5 nM
CN1CCC=C(c2c[nH]c3ncc(-c4ccccc4)cc23)C1 [Example 8]; 67 nM

Q: Query (compound): CN1CCC=C(c2c[nH]c3ncc(Cl)cc23)C1 [Example 7] ; field requested: EC50
A: 56.9 nM

Q: // repeat for CCCN1CCC=C(c2n[nH]c3c(Cl)cccc23)C1 [Example 123] and report
A: 142 nM

Q: For CCc1ccc2[nH]cc(C3=CCCN(C)C3)c2c1 [Example 26] then?
A: 177 nM

Q: Now the same for CCc1cccc2c(C3=CCCN(Cc4ccccc4)C3)c[nH]c12 [Example 69]
A: 98.2 nM

Q: Next up: CN1CCCC(c2c[nH]c3c(Cl)cccc23)C1 (single isomer, unassigned) [Example 113]
A: 279 nM

Q: What do we get for Clc1[nH]c2ccccc2c1C1=CCCNC1 [Example 64] ?
A: 61.9 nM

Q: Please give the result for CCc1cccc2c(C3=CCCNC3)c(Cl)[nH]c12 [Example 66] too.
A: 213 nM

Q: What would you report for Cc1ccc2c(C3=CCCNC3)n[nH]c2c1 [Example 76] ?
A: 118 nM

Q: Also need Clc1cnc2[nH]cc(C3=CCCNC3)c2c1 [Example 3] , thanks.
A: 29.4 nM

Q: Proceed to CN1CCC=C(c2c[nH]c3c(O)cccc23)C1 [Example 60]
A: 440 nM

Q: Another compound to check: N#Cc1ccc2c(C3=CCCNC3)n[nH]c2c1 [Example 79]
A: 874 nM

Q: Lookup CN1CCC=C(c2c[nH]c3nccc(Cl)c23)C1 [Example 15]
A: 23.5 nM

Q: Cool, now Fc1cccc2c(C3=CCCN(Cc4ccccc4)C3)c[nH]c12 [Example 73]
A: 116 nM

Q: Would you kindly repeat that for COc1cccc2c(C3=CCCN(Cc4ccccc4)C3)c[nH]c12 [Example 71] ?
A: 530 nM

Q: Item: CCc1[nH]c2ccccc2c1C1=CCCN(C)C1 [Example 65]
A: 124 nM
